- Tested on: organophosphorous agent resistant two-spotted spider mites
- experiment.summary: Effect on Two-spotted Spider Mite (spray on kidney bean leaves)
- Type: in vivo
- details: 125 ppm, water dispersible powder of Formulation Example 1 sprayed, 17 female adults, 25° C., 65% humidity, 3 days
measurement.name: rate of killed adults (%)
Numeric only. Scale: %

Example cases with answers are listed next.
molecule: COC(C)OCc1cc(C(F)(F)F)ccc1OC1CCN(c2ccc(C(F)(F)F)cn2)CC1C (stereo not drawn) [1-188]
target.or.test.system: organophosphorous agent resistant two-spotted spider mites
unit.tag: %
rate of killed adults: 100

molecule: COCOc1cc(C(F)(F)F)ccc1OC1CC2CCC(C1)N2c1ccc(C(F)(F)F)cn1 (stereo not drawn) [2-102]
target.or.test.system: organophosphorous agent resistant two-spotted spider mites
unit.tag: %
rate of killed adults: 100

Proceeding to the next molecule to report its rate of killed adults.
rate of killed adults in this record for FC(F)(F)c1ccc(N2CC3CCC(C2)C3Oc2ccc(C(F)(F)F)cc2OCC2OCCO2)nc1 (stereo not drawn) [5-203] : 100
